settings: human gut metagenome, 24 h, 2 µM; also: call rule not given here
result-type: Bacterial Biotransformation

[[record]]
molecule = "Nc1c2c(nc3ccccc13)CCCC2"
reported_value = "Compound NOT metabolized"

[[record]]
molecule = "NC(=O)N1c2ccccc2CC(=O)c2ccccc21 [OXCARBAZEPINE]"
reported_value = "Compound NOT metabolized"

[[record]]
molecule = "CC(O)(CS(=O)(=O)c1ccc(F)cc1)C(=O)Nc1ccc(C#N)c(C(F)(F)F)c1 (stereo not drawn) [BICALUTAMIDE]"
reported_value = "Compound NOT metabolized"

